- TEST: HepG2 cell viability effects, profiling panel, calcein-AM fluorescence, 48 h, basal (AID 1164); further: test concentration not given here
- MEASUREMENT SETUP: higher = more signal
QUANTITY NAME: z-score
Numbers only.

Please review the entries below; each comes with its answer.
COMPOUND | QUANTITY NAME | REPORTED
Cc1cc(C)c(-c2cc([C@H](C)ON=C3[C@H]4CCn5c(=O)n(-c6ccccc6)c(=O)n5[C@H]4[C@H](O)[C@@H]4O[C@H]34)on2)c(C)c1 | z-score | -0.887
Cc1ccc(S[C@]2(C(=O)NCC(F)(F)F)CC(=O)N(Cc3ccccc3Cl)[C@@H]2c2ccc(CO)cc2I)cc1 | z-score | 0.995

# return z-score for each item in the list
1. CO[C@@H]1COC(=O)CCC[C@@H](C)[C@H](OC)COC(=O)CCC[C@H]1C
2. CCOC(=O)NN=C1C[C@@H](O)[C@@H](O)[C@@H]2[C@@H]3C(=O)N(CC)C(=O)[C@@H]3CC[C@@H]12
3. CC(=O)OC[C@H]1O[C@H](CCON=C(C)CCC(=O)OC[C@H]2O[C@H](C#Cc3ccccc3)C=C[C@@H]2Oc2ccc(C)cc2)C=C[C@@H]1OC(C)=O
4. O=C(CS)NCCCCCNC(=O)[C@H]1C[C@H]2C(=O)N3CCC[C@H]3C(=O)N2[C@H]1c1cccc(OCCO)c1
5. C[C@H]1Cc2c(-c3ccccc3)nc3c(c2CO1)CN(CCOc1ccccc1)CC3

OUTPUT:
[-0.125, 0.322, 0.229, 0.432, 1.27]

# return z-score for each item in the list
1. CN(C)CCCNC(=O)[C@@H]1c2ccccc2C(=O)N(Cc2ccccc2)[C@H]1c1ccc(CO)cc1
2. CCc1cccc(NC(=O)O[C@H]2[C@H](OC(=O)Nc3ccc4c(c3)OCO4)[C@@H](OC(=O)Nc3ccc4c(c3)OCO4)[C@@H](OC)O[C@@H]2CO)c1
3. C=C(/C(=C/C[C@H](OC(=O)c1ccncc1)c1ccc(OCCO)cc1)c1cnc2ccccc2c1)C(C)C
4. COC(=O)[C@H](C)NC(=O)[C@@H](C)CO
5. CCCNC(=O)OC[C@H]1O[C@H](CCON=CC[C@@H]2C=C[C@H](OC(C)=O)[C@@H](COC(C)=O)O2)C=C[C@@H]1Oc1ccc(OC)cc1
6. CCOC(=O)NN=C1C[C@@H](O)[C@@H](O)[C@@H]2[C@@H]3C(=O)N(C(C)(C)C)C(=O)[C@@H]3CC[C@@H]12
7. CN1C(=O)C2C=CC(C(O)c3ccc(Br)cc3)N(N(c3ccccc3)c3ccccc3)C2C1=O (stereo not given)

OUTPUT:
1.31
-1.66
0.0253
-0.524
-0.24
-0.394
1.37

Lookup result for COc1ccc(O[C@H]2C=C[C@@H](c3ccccc3)O[C@@H]2COC(=O)CCC(C)=NOC[C@@H](C)[C@H](OCc2ccccc2)C(C)C)cc1 ; measured z-score: -0.442
